target.of.assay: human CXCR3A (Homo sapiens (Human))
method.notes: FLIPR assay
details: CHO-K1 cells expressing the human CXCR3A coupled to Galpha(16); CXCL10 agonist 20 nM; Fluo-4-AM fluorescence; mean values if determined several times
Measured IC50 values are reported for all entries that follow.

chem.smiles: C[C@@H]1CN(c2scnc2-c2nc3ccc(C4CC4)cc3[nH]2)CCN1C(=O)Cn1cnc2cccnc21
IC50, nM: 1
//
chem.smiles: Cc1cc(C)n(CC(=O)N2CCN(c3scnc3-c3nc4ccccc4[nH]3)CC2)n1
IC50, nM: 92
//
chem.smiles: C[C@@H]1CN(c2sc(C(F)(F)F)nc2-c2nc3ccccc3[nH]2)CCN1C(=O)Cn1cnc(Br)n1
IC50, nM: 1
//
chem.smiles: C[C@@H]1CN(c2sc(C(F)(F)F)nc2-c2nc3cc(OCCO)ccc3[nH]2)CCN1C(=O)Cn1cnc2cccnc21
IC50, nM: 1
//
chem.smiles: O=C(Cn1ccc2cccnc21)N1CCN(c2sc(Cl)nc2-c2nc3ccccc3[nH]2)CC1
IC50, nM: 547
//
chem.smiles: C[C@@H]1CN(c2sc(C3CC3)nc2-c2nc3ccccc3[nH]2)CCN1C(=O)Cn1cnc2cccnc21
IC50, nM: 6
//
chem.smiles: C[C@@H]1CN(c2sc(CO)nc2-c2nc3ccccc3[nH]2)CCN1C(=O)Cn1cnc2cccnc21
IC50, nM: 54
//
chem.smiles: Cc1nc2ccccc2n1CC(=O)N1CCN(c2scnc2-c2nc3ccccc3[nH]2)CC1
IC50, nM: 198
//
chem.smiles: C[C@@H]1CN(c2sc(C(F)(F)F)nc2-c2nc3ccccc3[nH]2)CCN1C(=O)Cn1cc2cccnc2n1
IC50, nM: 1
//
chem.smiles: Cc1nc(C)n(CC(=O)N2CCN(c3sc(C(F)(F)F)nc3-c3nc4ccc(C5CCN(C)CC5)cc4[nH]3)C[C@H]2C)n1
IC50, nM: 2
//
chem.smiles: O=C1CCN(CC(=O)N2CCN(c3scnc3-c3nc4ccccc4[nH]3)CC2)c2ccccc21
IC50, nM: 78
//
chem.smiles: O=C(Cn1cnc2cccnc21)N1CCN(c2sc(C(F)(F)F)nc2-c2nc3ccccc3[nH]2)CC1
IC50, nM: 1
//
chem.smiles: Cn1c(=O)n(CC(=O)N2CCN(c3scnc3-c3nc4ccc(F)cc4[nH]3)CC2)c2ccccc21
IC50, nM: 10
//
chem.smiles: CCc1nc(-c2nc3ccccc3[nH]2)c(N2CCN(C(=O)Cn3ccc4cccnc43)CC2)s1
IC50, nM: 15
//
chem.smiles: C[C@@H]1CN(c2scnc2-c2nc3ccccc3[nH]2)CCN1C(=O)Cn1c(=O)oc2cccc(F)c21
IC50, nM: 7

====

The entries below come with measured pIC50 values attached.
target.of.assay: CXCR3 (Homo sapiens (Human))
method.notes: Receptor internalization assay
Type: cell-based
details: human whole blood; final CXCL10 concentration 9 nM; 30 min 37° C.; CXCR3 cell surface expression on CD3 positive cells, flow cytometer; read-out: Internalization IC50
pIC50: −log10 of the molar value.
endpoint.label: pIC50

chem.smiles: O=C(Cn1ccc2ccc(Cl)nc21)N1CCN(c2scnc2-c2nc3ccccc3[nH]2)CC1
target.of.assay: CXCR3 (Homo sapiens (Human))
numeric.result: 6.09

chem.smiles: Cc1nn(CC(=O)N2CCN(c3sc(C(F)(F)F)nc3-c3nc4ccccc4[nH]3)C[C@H]2C)cc1CN(C)C
target.of.assay: CXCR3 (Homo sapiens (Human))
numeric.result: 6.64

chem.smiles: C[C@@H]1CN(c2scnc2-c2nc3ccccc3[nH]2)CCN1C(=O)Cn1ncc2cccnc21
target.of.assay: CXCR3 (Homo sapiens (Human))
numeric.result: 6.09

chem.smiles: C[C@@H]1CN(c2sc(Br)nc2-c2nc3ccccc3[nH]2)CCN1C(=O)Cn1cnc2cccnc21
target.of.assay: CXCR3 (Homo sapiens (Human))
numeric.result: 6.34

====

target.of.assay: CXCR3 (Homo sapiens (Human), UniProt P49682)
Sequence (P49682 whole entry): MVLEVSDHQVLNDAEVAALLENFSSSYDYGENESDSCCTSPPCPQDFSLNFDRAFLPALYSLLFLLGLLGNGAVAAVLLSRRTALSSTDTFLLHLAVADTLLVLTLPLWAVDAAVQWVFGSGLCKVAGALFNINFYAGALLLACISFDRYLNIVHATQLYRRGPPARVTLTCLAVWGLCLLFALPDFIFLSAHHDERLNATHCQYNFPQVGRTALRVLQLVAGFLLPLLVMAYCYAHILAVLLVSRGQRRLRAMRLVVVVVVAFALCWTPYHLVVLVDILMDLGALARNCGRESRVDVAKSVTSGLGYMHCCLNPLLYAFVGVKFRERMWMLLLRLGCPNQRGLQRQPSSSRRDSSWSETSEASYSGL
method.notes: Receptor internalization assay
Type: cell-based
details: human whole blood; final CXCL10 concentration 9 nM; 30 min 37° C.; CXCR3 cell surface expression on CD3 positive cells, flow cytometer; read-out: Internalization IC50
endpoint.label: IC50 (nM)

chem.smiles: CN(C)C[C@@H]1CN(c2sc(C(F)(F)F)nc2-c2nc3ccccc3[nH]2)CCN1C(=O)Cn1cnc2cccnc21
endpoint.label: IC50
unit.abbreviation: nM
numeric.result: 12
//
chem.smiles: Cc1nc(C)n(CC(=O)N2CCN(c3sc(C(F)(F)F)nc3-c3nc4cc(CCN)ccc4[nH]3)C[C@H]2C)n1
endpoint.label: IC50
unit.abbreviation: nM
numeric.result: 324
//
chem.smiles: C[C@@H]1CN(c2sc(C(F)(F)F)nc2-c2nc3ccccc3[nH]2)CCN1C(=O)Cn1ncc2c1CCN(C)C2
endpoint.label: IC50
unit.abbreviation: nM
numeric.result: 90
//
chem.smiles: C[C@@H]1CN(c2sc(C(F)(F)F)nc2-c2nc3ccccc3[nH]2)CCN1C(=O)Cn1cnc2c1CN(C)CC2
endpoint.label: IC50
unit.abbreviation: nM
numeric.result: 121
//
chem.smiles: C[C@@H]1CN(c2scnc2-c2nc3ccccc3[nH]2)CCN1C(=O)Cn1ccc2ccncc21
endpoint.label: IC50
unit.abbreviation: nM
numeric.result: 363
//
chem.smiles: O=C(CN1C(=O)Cc2ccccc21)N1CCN(c2scnc2-c2nc3ccccc3[nH]2)CC1
endpoint.label: IC50
unit.abbreviation: nM
numeric.result: 749
//
chem.smiles: C[C@@H]1CN(c2sc(C(F)(F)F)nc2-c2nc3ccccc3[nH]2)CCN1C(=O)Cc1ccccc1-n1nccn1
endpoint.label: IC50
unit.abbreviation: nM
numeric.result: 627

====

target.of.assay: UniProt:P49682
method.notes: FLIPR assay
details: CHO-K1 cells expressing the human CXCR3A coupled to Galpha(16); CXCL10 agonist 20 nM; Fluo-4-AM fluorescence; mean values if determined several times
endpoint.label: IC50 (nM)

molecule: Cc1ccc2ccn(CC(=O)N3CCN(c4scnc4-c4nc5ccccc5[nH]4)CC3)c2n1 [Example 70]
target.of.assay: UniProt:P49682
numeric.result: 13
//
molecule: Cc1cc2ccccc2n1CC(=O)N1CCN(c2scnc2-c2nc3ccccc3[nH]2)CC1 [Example 58]
target.of.assay: UniProt:P49682
numeric.result: 34
//
molecule: O=C(CN1C(=O)Cc2ccccc21)N1CCN(c2scnc2-c2nc3ccccc3[nH]2)CC1 [Example 68]
target.of.assay: UniProt:P49682
numeric.result: 8
//
molecule: Cc1nc(C)n(CC(=O)N2CCN(c3sc(C(F)(F)F)nc3-c3nc4ccc(OC5CNC5)cc4[nH]3)C[C@H]2C)n1 [Example 242]
target.of.assay: UniProt:P49682
numeric.result: 4
//
molecule: Cc1nc(CN(C)C)nn1CC(=O)N1CCN(c2sc(C(F)(F)F)nc2-c2nc3ccccc3[nH]2)C[C@H]1C [Example 218]
target.of.assay: UniProt:P49682
numeric.result: 8
//
molecule: C[C@@H]1CN(c2scnc2-c2nc3cc(Cl)c(F)cc3[nH]2)CCN1C(=O)Cn1ccc2cccnc21 [Example 26]
target.of.assay: UniProt:P49682
numeric.result: 1
//
molecule: CN(C)C[C@@H]1CN(c2scnc2-c2nc3ccccc3[nH]2)CCN1C(=O)Cn1cnc2cccnc21 [Example 229]
target.of.assay: UniProt:P49682
numeric.result: 1
//
molecule: C[C@@H]1CN(c2scnc2-c2nc3ccccc3[nH]2)CCN1C(=O)Cc1cccc2cccnc12 [Example 119]
target.of.assay: UniProt:P49682
numeric.result: 2
//
molecule: COc1cc2nc(-c3ncsc3N3CCN(C(=O)Cn4c(=O)n(C)c5ccccc54)CC3)[nH]c2cc1OC [Example 36]
target.of.assay: UniProt:P49682
numeric.result: 17
//
molecule: CC(C)c1ccc2nc(-c3ncsc3N3CCN(C(=O)Cn4cnc5cccnc54)[C@H](C)C3)[nH]c2c1 [Example 88]
target.of.assay: UniProt:P49682
numeric.result: 1
//
molecule: C[C@@H]1CN(c2scnc2-c2nc3ccccc3[nH]2)CCN1C(=O)Cc1ccc2ccccc2c1 [Example 117]
target.of.assay: UniProt:P49682
numeric.result: 75
//
molecule: C[C@@H]1CN(c2scnc2-c2nc3cc(C(C)(C)C)ccc3[nH]2)CCN1C(=O)Cn1cnc2cccnc21 [Example 86]
target.of.assay: UniProt:P49682
numeric.result: 1
//
molecule: Cc1nc(-c2nc3ccccc3[nH]2)c(N2CCN(C(=O)Cn3cnc4cccnc43)[C@H](C)C2)s1 [Example 144]
target.of.assay: UniProt:P49682
numeric.result: 2
//
molecule: Cc1c(Cl)ccc2[nH]c(-c3ncsc3N3CCN(C(=O)Cn4cnc5cccnc54)[C@H](C)C3)nc12 [Example 94]
target.of.assay: UniProt:P49682
numeric.result: 0.5
//
molecule: C[C@@H]1CN(c2sc(C(F)(F)F)nc2-c2nc3cncnc3[nH]2)CCN1C(=O)Cn1cnc2cccnc21 [Example 171]
target.of.assay: UniProt:P49682
numeric.result: 1
//
molecule: O=C(Cn1ccc(C(F)(F)F)n1)N1CCN(c2scnc2-c2nc3ccccc3[nH]2)CC1 [Example 5]
target.of.assay: UniProt:P49682
numeric.result: 33
//
molecule: C[C@@H]1CN(c2sc(C(F)(F)F)nc2-c2nc3ccccc3[nH]2)CCN1C(=O)Cc1nnc(-c2ccccc2)o1 [Example 196]
target.of.assay: UniProt:P49682
numeric.result: 6
//
molecule: C[C@@H]1CN(c2sc(C(F)(F)F)nc2-c2nc3cc(Cl)ccc3[nH]2)CCN1C(=O)Cn1cnc2cccnc21 [Example 147]
target.of.assay: UniProt:P49682
numeric.result: 1
//
molecule: C[C@@H]1CN(c2scnc2-c2nc3ccccc3[nH]2)CCN1C(=O)Cn1cc2cccnc2n1 [Example 116]
target.of.assay: UniProt:P49682
numeric.result: 3
//
molecule: C[C@@H]1CN(c2sc(C(F)(F)F)nc2-c2nc3ccccc3[nH]2)CCN1C(=O)Cn1ncc2c1CCN(C)C2 [Example 216]
target.of.assay: UniProt:P49682
numeric.result: 2
//
molecule: Cc1nc(C)n(CC(=O)N2CCN(c3sc(C(F)(F)F)nc3-c3nc4ccc(CCN5CCCC5)cc4[nH]3)C[C@H]2C)n1 [Example 244]
target.of.assay: UniProt:P49682
numeric.result: 23
//
molecule: Cc1nc(C)n(CC(=O)N2CCN(c3sc(C(F)(F)F)nc3-c3nc4ccccc4[nH]3)C[C@H]2CN(C)C)n1 [Example 227]
target.of.assay: UniProt:P49682
numeric.result: 8
//
molecule: COc1ccc2[nH]cc(CC(=O)N3CCN(c4scnc4-c4nc5ccccc5[nH]4)C[C@H]3C)c2c1 [Example 126]
target.of.assay: UniProt:P49682
numeric.result: 68
//
molecule: C[C@@H]1CN(c2sc(C(F)(F)F)nc2-c2nc3ccccc3[nH]2)CCN1C(=O)Cn1cnc2c1CN(C)CC2 [Example 210]
target.of.assay: UniProt:P49682
numeric.result: 1
//
molecule: CCc1ccc2nc(-c3ncsc3N3CCN(C(=O)Cn4cnc5cccnc54)[C@H](C)C3)[nH]c2c1 [Example 99]
target.of.assay: UniProt:P49682
numeric.result: 1
//
molecule: O=C(CN1C(=O)CCc2ccccc21)N1CCN(c2scnc2-c2nc3ccccc3[nH]2)CC1 [Example 77]
target.of.assay: UniProt:P49682
numeric.result: 6
//
molecule: O=C(Cn1c(=O)[nH]c2cccnc21)N1CCN(c2scnc2-c2nc3ccccc3[nH]2)CC1 [Example 71]
target.of.assay: UniProt:P49682
numeric.result: 6
//
molecule: COc1ccc2[nH]c(-c3ncsc3N3CCN(C(=O)Cn4c(=O)n(C)c5ccccc54)CC3)nc2c1 [Example 33]
target.of.assay: UniProt:P49682
numeric.result: 5
//
molecule: CC(=O)c1ccc2[nH]c(-c3nc(C(F)(F)F)sc3N3CCN(C(=O)Cn4cnc5cccnc54)[C@H](C)C3)nc2c1 [Example 165]
target.of.assay: UniProt:P49682
numeric.result: 1
